Give measured inhibition for each item. Keep answers brief.
experiment: NOD1 signaling inhibitors, primary screen, cell-based, luminescence, uHTS (AID 1578); conditions: NOD1-driven NF-kB luciferase reporter cells, at 4 µM, stronger effect = higher value;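 further: HEK-293T reporter cells stimulated with the NOD1 agonist gamma-tri-DAP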
Among all 290,000 compounds or so, about 3,000 (1%) were called active. The full list was thinned out, with actives kept by preference.
Give your result in % as a bare value.

Prompt line: Given the compound `Cc1nn(C)cc1/C=C/C(=O)c1cccs1` , what is its reported inhibition?
Response line: 112

Prompt line: Given the compound `CCCn1nnnc1SCC(=O)N1CCCc2ccccc21` , what is its reported inhibition?
Response line: -20

Prompt line: Given the compound `Oc1c(Br)cc(Br)cc1CNn1cnnc1` , what is its reported inhibition?
Response line: 5.1

Prompt line: Given the compound `CCn1c(Cl)c(C=O)s/c1=N\S(=O)(=O)c1ccccc1` , what is its reported inhibition?
Response line: 34

Prompt line: Given the compound CC(Oc1ccccc1)c1ccnc2nc(/N=C/N(C)C)nn12 (configuration not stated) , what is its reported inhibition?
Response line: -24.9

Prompt line: Given the compound `Cc1c(C(C)(C)C)s/c(=N/S(=O)(=O)c2ccccc2)n1C` , what is its reported inhibition?
Response line: 3

Prompt line: Given the compound `CCC(=O)N1CCN(c2nc(C)nc3sc(C)c(C)c23)CC1` , what is its reported inhibition?
Response line: 9.5

Prompt line: Given the compound CS(=O)(=O)N(CC(=O)NCC1CCCO1)c1cc(Cl)ccc1Cl (configuration not stated) , what is its reported inhibition?
Response line: 2.4

Prompt line: Given the compound `Cc1nc(SCC(=O)N2CCCCC2)c2c(C)c(C)sc2n1` , what is its reported inhibition?
Response line: -15.5

Prompt line: Given the compound `COc1ccccc1-c1nc(C#N)c(N2CCN(Cc3ccccc3)CC2)o1` , what is its reported inhibition?
Response line: 13.8

Prompt line: Given the compound `Cc1ccc(OCC(=O)Nc2ccc(N3CCN(C(=O)c4ccco4)CC3)cc2)cc1C` , what is its reported inhibition?
Response line: -9.9

Prompt line: Given the compound `Cc1nn(C)cc1/C=C/C(=O)c1ccccc1` , what is its reported inhibition?
Response line: -44.5

====

experiment: NOD1 signaling inhibitors, primary screen, cell-based, luminescence, uHTS (AID 1578); conditions: NOD1-driven NF-kB luciferase reporter cells, at 4 µM;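 further: HEK-293T reporter cells stimulated with the NOD1 agonist gamma-tri-DAP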
Out of some 290,000 compounds screened, about 3,000 (1%) were called active. No stated cut-off is given here; in the data, active means inhibition mostly above about 36% (no sharp cut-off); inactive means mostly below about 34%. What follows is part of a selection rich in actives, with near analogues and random picks from the rest.
Mark one answer only. Choices: true for active, false for inactive

Prompt line: Look up the recorded call for `O=C(COc1cccc(Cl)c1)Nc1nc(-c2ccc(S(=O)(=O)N3CCOCC3)cc2)cs1` in this test.
Response line: false

Prompt line: Look up the recorded call for CC(C)CC(=O)NC(NC(=S)Nc1sc2c(c1C#N)CCCC2)C(Cl)(Cl)Cl (stereo not drawn) in this test.
Response line: true

Prompt line: Look up the recorded call for `CCCCCCNc1c([N+](=O)[O-])c(=O)sc2ccccc12` in this test.
Response line: true

Prompt line: Look up the recorded call for `CCCCNC(=O)C1CCN(C(=O)C2CCN(S(=O)(=O)c3ccc(C)cc3)CC2)CC1` in this test.
Response line: false

Prompt line: Look up the recorded call for `Cc1cc([N+](=O)[O-])ccc1NC(=O)Nc1ccc(F)cc1F` in this test.
Response line: false

Prompt line: Look up the recorded call for COc1cccc(COc2ccccc2C2Nc3ccc(Br)cc3C(=O)N2NC(=O)c2ccncc2)c1 (stereo not drawn) in this test.
Response line: false

Prompt line: Look up the recorded call for `CN1CCN(c2ccccc2NC(=S)NC(=O)c2cc3ccccc3o2)CC1` in this test.
Response line: false

Prompt line: Look up the recorded call for `NC1=NC(=O)/C(=C/c2cccc(F)c2)S1` in this test.
Response line: false

Prompt line: Look up the recorded call for `CCCCNc1c([N+](=O)[O-])c(=O)n(C)c2ccccc12` in this test.
Response line: false

Prompt line: Look up the recorded call for `CC(C)(C)Nc1c([N+](=O)[O-])c(=O)sc2ccccc12` in this test.
Response line: false

Prompt line: Look up the recorded call for `COc1cc(/C=C(\C#N)C(=O)N2CCOCC2)ccc1OCc1ccccc1` in this test.
Response line: false

Prompt line: Look up the recorded call for CCOC(=O)C1CCN(CC(O)COCc2ccccc2)CC1 (stereo not drawn) in this test.
Response line: true

Prompt line: Look up the recorded call for CC(=O)c1cccc(NC(=O)C2C(c3ccccc3)C2(Cl)Cl)c1 (stereo not drawn) in this test.
Response line: false

Prompt line: Look up the recorded call for `COc1ccc(-c2csc(NC(=O)c3cccs3)c2C(=O)O)cc1OC` in this test.
Response line: false

Prompt line: Look up the recorded call for `Cc1ccc(S(=O)(=O)NCCC(=O)O)cc1` in this test.
Response line: false

Prompt line: Look up the recorded call for CCOC(=O)C1CCN(CC(O)COCc2ccc(Cl)cc2)CC1 (stereo not drawn) in this test.
Response line: false

Prompt line: Look up the recorded call for CC(C)(C)C(=O)NC(NC(=S)Nc1sc2c(c1C#N)CCCC2)C(Cl)(Cl)Cl (stereo not drawn) in this test.
Response line: false

Prompt line: Look up the recorded call for CCOC(=O)C1CCN(CC(O)COCc2cccs2)CC1 (stereo not drawn) in this test.
Response line: false

Prompt line: Look up the recorded call for `Cc1cc(NC(=O)CSc2nc3ccccc3c(=O)n2Cc2ccccc2)no1` in this test.
Response line: false

Prompt line: Look up the recorded call for `COc1ccc(-c2cc(C3CC3)nc3sc(C#N)c(N)c23)cc1` in this test.
Response line: false

Prompt line: Look up the recorded call for `NC1=NC(=O)/C(=C/c2ccc(Br)cc2)S1` in this test.
Response line: false

Prompt line: Look up the recorded call for CCC(C)[C@H](NC(=O)Nc1ccccc1F)C(=O)O (stereo partly drawn) in this test.
Response line: false

Prompt line: Look up the recorded call for CCN(c1ccccc1)S(=O)(=O)c1ccc2c(c1)CC(C)N2C(=O)C1CC1 (stereo not drawn) in this test.
Response line: false
